Entry source: patent US11708360B2

TEST_SYSTEM: CCR6 (Homo sapiens, UniProt P51684)
Construct: Human CD4+CCR6+CXCR3-T cells were isolated from leukopak from healthy donors; endogenous in cells
EXPERIMENT_NOTES: CCR6+ T Cell Chemotaxis Assay
Type: cell-based
MEASUREMENT_CONDITIONS: Table 11; human CD4+CCR6+CXCR3- T cells, CCL20 0.5 nM in bottom chamber, 1 h at 37° C.; read-out: IC50
pIC50: −log10 of the molar value.
Response key: MET means pIC50 >= 8; NOT MET means pIC50 < 8.

{"columns": ["MOLECULE", "GROUP"],
 "data": [
  ["CN(C)C(=O)c1nccc(Nc2c(N[C@H](c3nn(C)cc3Cl)C3(C)CCCC3)c(=O)c2=O)c1O [Example 9]", "NOT MET"],
  ["Cc1cn(C)nc1[C@@H](Nc1c(Nc2ccnc(C(=O)N(C)C)c2O)c(=O)c1=O)C1(C)CCCC1 [Example 2]", "NOT MET"],
  ["COc1cn(C)nc1[C@H](Nc1c(Nc2ccnc(C(=O)N(C)C(C)C)c2O)c(=O)c1=O)C1(C)CCCC1 [Example 11]", "MET"],
  ["Cc1cn(C)nc1[C@H](Nc1c(Nc2ccnc(C(=O)N(C)C)c2O)c(=O)c1=O)C1(C)CC1 [Example 20]", "NOT MET"],
  ["CCc1cn(C)nc1[C@H](Nc1c(Nc2ccnc(C(=O)N(C)C)c2O)c(=O)c1=O)[C@]1(C)CC(F)(F)CO1 [Example 37]", "MET"],
  ["CCc1cn(C)nc1[C@H](Nc1c(Nc2ccnc(C(=O)N(C)C)c2O)c(=O)c1=O)C1(C)CC1 [Example 21]", "NOT MET"],
  ["CCN(C)C(=O)c1nccc(Nc2c(N[C@H](c3nn(C)cc3C)C3(C)CCCC3)c(=O)c2=O)c1O [Example 5]", "NOT MET"]
]}

====

TEST_SYSTEM: CCR6 (Homo sapiens, UniProt P51684)
Construct: Human CD4+CCR6+CXCR3-T cells were isolated from leukopak from healthy donors; endogenous in cells
Sequence (P51684 1-374): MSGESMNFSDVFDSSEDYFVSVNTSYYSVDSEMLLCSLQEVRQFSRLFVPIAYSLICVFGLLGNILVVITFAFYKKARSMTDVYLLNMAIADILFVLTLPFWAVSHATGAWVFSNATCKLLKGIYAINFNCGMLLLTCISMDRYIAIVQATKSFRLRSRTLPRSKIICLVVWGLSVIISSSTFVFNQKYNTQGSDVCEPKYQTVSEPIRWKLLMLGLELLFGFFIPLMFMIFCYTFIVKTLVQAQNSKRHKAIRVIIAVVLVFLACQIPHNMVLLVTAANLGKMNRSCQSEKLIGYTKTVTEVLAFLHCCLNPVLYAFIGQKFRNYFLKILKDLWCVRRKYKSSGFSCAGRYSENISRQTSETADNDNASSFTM
EXPERIMENT_NOTES: CCR6+ T Cell Chemotaxis Assay
Format: cell-based
MEASUREMENT_CONDITIONS: Table 11; human CD4+CCR6+CXCR3- T cells, CCL20 0.5 nM in bottom chamber, 1 h at 37° C.; read-out: IC50
pIC50: −log10 of the molar value.
QUANTITY_NAME: pIC50

{"columns": ["COMPOUND", "TEST_SYSTEM", "REPORTED_VALUE"],
 "data": [
  ["CCc1cn(C)nc1[C@H](Nc1c(Nc2ccnc(C(=O)N(C)C)c2O)c(=O)c1=O)C(C)(C)C [Example 27]", "CCR6 (Homo sapiens, UniProt P51684)", 7.88],
  ["Cc1cn(C)nc1[C@H](Nc1c(Nc2ccnc(C(=O)N3CCOCC3)c2O)c(=O)c1=O)C1(C)CCCC1 [Example 6]", "CCR6 (Homo sapiens, UniProt P51684)", 7.94],
  ["CN(C)C(=O)c1nccc(Nc2c(N[C@@H](c3nn(C)cc3C3CC3)C3(C)CCCC3)c(=O)c2=O)c1O [Example 29]", "CCR6 (Homo sapiens, UniProt P51684)", 7.92],
  ["CN(C)C(=O)c1nccc(Nc2c(N[C@@H](c3nn(C)cc3OC(F)F)C3(C)CCCC3)c(=O)c2=O)c1O [Example 15]", "CCR6 (Homo sapiens, UniProt P51684)", 7.97],
  ["CC(C)N(C)C(=O)c1nccc(Nc2c(N[C@@H](c3nn(C)cc3Cl)C3(C)CCCC3)c(=O)c2=O)c1O [Example 10]", "CCR6 (Homo sapiens, UniProt P51684)", 8.06]
]}
